- PROTOCOL_NOTES: Pharmacokinetic (PK) analysis in rats
- Assay type: in vivo, Sprague Dawley (SD) rats
- TEST_CONTEXT: Sprague-Dawley, rat, plasma, po; SD rats, single intragastric administration, 5 mg/kg; read-out: Area Under Curve AUC0-∞
MEASURED_METRIC: AUC(0-inf) (ng·h/mL)
Give bare numbers, in ng·h/mL.

MOLECULE: COC[C@@H](C)Nc1cc(NC(=O)N2CCCc3cc(CN4CCCCOC4=O)c(C=O)nc32)ncc1C#N
READING_UNIT: ng·h/mL
MEASURED_VALUE: 9460

Can you give me AUC(0-inf) for all of these, one by one?
1. COC1CCN(c2cc(NC(=O)N3CCCc4cc(CN5CCOCC5=O)c(C=O)nc43)ncc2C#N)C1 (centres unmarked)
2. CO[C@H]1COCC1Nc1cc(NC(=O)N2CCCc3cc(CN4CCOCC4=O)c(C=O)nc32)ncc1C#N (some centres unmarked)
3. COCCNc1cc(NC(=O)N2CCCc3cc(CN4CCCCOC4=O)c(C=O)nc32)ncc1C#N

Result:
1: 8740; 2: 2540; 3: 9110

Can you give me AUC(0-inf) for all of these, one by one?
1. CO[C@@H]1CCN(c2cc(NC(=O)N3CCCc4cc(CN5CCOC5=O)c(C=O)nc43)ncc2C#N)C1
2. N#Cc1cnc(NC(=O)N2CCCc3cc(CN4CCOCC4=O)c(C=O)nc32)cc1S[C@H]1CCOC1
3. CONc1cc(NC(=O)N2CCCc3cc(CN4CCOCC4=O)c(C=O)nc32)ncc1C#N
4. CO[C@H]1CCN(c2cc(NC(=O)N3CCCc4cc(CN5CCOCC5=O)c(C=O)nc43)ncc2C#N)C1
5. CO[C@@H]1CCC1Oc1cc(NC(=O)N2CCCc3cc(CN4CCOCC4=O)c(C=O)nc32)ncc1C#N (some centres unmarked)
6. COCCNc1cc(NC(=O)N2CCCc3cc(CN4CCN(C5CC5)CC4=O)c(C=O)nc32)ncc1C#N
7. CO[C@H]1CCC1Oc1cc(NC(=O)N2CCCc3cc(CN4CCOCC4=O)c(C=O)nc32)ncc1C#N (some centres unmarked)

Result:
1. 2960
2. 1950
3. 5690
4. 3730
5. 2120
6. 3390
7. 4060

The measurements presented in this section are drawn from patent US11667631B2.
